Target: human MCH receptor 1 (MCHR1) (Homo sapiens, UniProt Q99705)
Construct: expressed in transfected cells; host or cells: CHO cell clone 57 (described in WO01/82925); membrane fraction
Sequence (Q99705 whole entry): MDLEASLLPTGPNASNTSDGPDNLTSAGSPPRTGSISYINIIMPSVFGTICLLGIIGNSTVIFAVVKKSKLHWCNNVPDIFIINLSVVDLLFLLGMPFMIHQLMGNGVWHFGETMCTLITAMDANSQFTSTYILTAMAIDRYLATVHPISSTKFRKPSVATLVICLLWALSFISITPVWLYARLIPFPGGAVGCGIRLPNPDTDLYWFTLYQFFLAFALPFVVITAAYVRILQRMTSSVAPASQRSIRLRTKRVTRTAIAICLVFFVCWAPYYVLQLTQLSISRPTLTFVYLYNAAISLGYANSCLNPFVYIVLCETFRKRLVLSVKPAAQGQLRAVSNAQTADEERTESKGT
Test: Human MCH receptor 1 (MCHR1) competitive inhibitory activity using binding assay
Settings: test compound 0.1 μM; [125I]-MCH (4-19); human MCHR1-expressing CHO cellular membrane fraction; read-out: Binding inhibition rate % (0.1 μM)
Experimental: Determination of Human MCH Receptor 1 (MCHR1) Competitive Inhibitory Activity of Test Compound Using Binding Assay 1. Preparation of Membrane Fraction […] The MCHR1 ligand binding inhibitory activity of the test compound was determined as follows. The mixture was reacted with stirring at room temperature for 1 hr, and the plate was set on FilterMate Harvester (PerkinElmer). […] The binding inhibition rate of the test compound was calculated by the following formula. […]
REPORTED_PROPERTY: inhibition at 0.1 µM (%)

- COMPOUND_STRUCTURE_STRING: "Cc1c2c(F)c(-n3ccc(OCc4ccc(Cl)cc4)cc3=O)ccc2nn1C"
  REPORTED_PROPERTY: "inhibition at 0.1 µM"
  DISPLAY_UNIT: "%"
  MEASURED_RESULT: 54
- COMPOUND_STRUCTURE_STRING: "Cc1c2cc(-n3ccc(OCc4nc(C(F)(F)F)cs4)cc3=O)ccc2nn1C1CC1"
  REPORTED_PROPERTY: "inhibition at 0.1 µM"
  DISPLAY_UNIT: "%"
  MEASURED_RESULT: 76
- COMPOUND_STRUCTURE_STRING: "Cc1c2cc(-n3ccc(OCc4ccccc4)cc3=O)ccc2nn1C1CC1"
  REPORTED_PROPERTY: "inhibition at 0.1 µM"
  DISPLAY_UNIT: "%"
  MEASURED_RESULT: 44
- COMPOUND_STRUCTURE_STRING: "Cc1c2cc(-n3ccc(OCc4csc(C(F)(F)F)c4)cc3=O)ccc2nn1C"
  REPORTED_PROPERTY: "inhibition at 0.1 µM"
  DISPLAY_UNIT: "%"
  MEASURED_RESULT: 51
- COMPOUND_STRUCTURE_STRING: "Cc1c2cc(-n3ccc(OCc4ccc(Br)cn4)cc3=O)ccc2nn1C1CC1"
  REPORTED_PROPERTY: "inhibition at 0.1 µM"
  DISPLAY_UNIT: "%"
  MEASURED_RESULT: 68

P. CCn1nc2ccc(-n3ccc(OCc4ccc(Cl)cc4)cc3=O)cc2c1C
Q. Cc1c2cc(-n3ccc(OCc4cc(C(F)(F)F)cs4)cc3=O)ccc2nn1C1CC1
Query block: Endpoint returns whichever of P and Q has the numerically higher inhibition at 0.1 µM. Answer format: the label of the selected item.
Result block: Q

###

biological target: human MCHR1 (Homo sapiens, UniProt Q99705); construct: expressed in transfected cells; host or cells: CHO dhfr- cells, clone #4; assay: MCH receptor 1 antagonistic activity using Ca2+ mobilization assay; assay type: cell-based; conditions: test compound 0.1 μM; ligand MCH (4-19) 2 nM; human MCHR1-expressing CHO cells (clone #4); read-out: Inhibition rate % (0.1 μM)
Sequence (Q99705 whole entry): as above
REPORTED_PROPERTY: inhibition at 0.1 µM (%)

- COMPOUND_STRUCTURE_STRING: "Cc1c2cc(-n3ccc(OCc4cc5ccccc5o4)cc3=O)ccc2nn1C"
  DISPLAY_UNIT: "%"
  MEASURED_RESULT: 57
- COMPOUND_STRUCTURE_STRING: "CCn1nc2ccc(-n3ccc(OCc4nc(C(F)(F)F)cs4)cc3=O)cc2c1C"
  DISPLAY_UNIT: "%"
  MEASURED_RESULT: 83
- COMPOUND_STRUCTURE_STRING: "Cc1c2cc(-n3ccc(OCc4nc(C(F)(F)F)cs4)cc3=O)ccc2nn1C1CC1"
  DISPLAY_UNIT: "%"
  MEASURED_RESULT: 96
- COMPOUND_STRUCTURE_STRING: "Cc1c2cc(-n3ccc(OCc4ccc(F)cc4)cc3=O)ccc2nn1C1CC1"
  DISPLAY_UNIT: "%"
  MEASURED_RESULT: 70
- COMPOUND_STRUCTURE_STRING: "Cc1c2cc(-n3ccc(OCc4ccc(Br)cn4)cc3=O)ccc2nn1C"
  DISPLAY_UNIT: "%"
  MEASURED_RESULT: 77
